test system: OVCAR-4 ovarian; assay: NCI tumour cell line growth inhibition, 48 h
Endpoint Label: TGI

> print(dat)
                                   compound  endpoint.label     result
1  CN(C(=O)C12C3C4C1C1C2C3C41C#N)C(C)(C)C (centres undefined)             TGI   > 100 µM
2  CC(=O)OC1CCC2(C)C(CCC3C2CCC2(C)C(c4ccc(=O)oc4)C(OC(C)=O)CC32O)C1 (centres undefined)             TGI  0.0253 µM
3  Cc1ccc(NC(c2ccccc2)P(=O)(c2ccccc2)c2ccccc2)cc1 (centres undefined)             TGI   > 100 µM
4         Cc1ccc(C)c(N2CCN(c3ccncc3N)CC2)c1             TGI   > 100 µM
5  c1cc(CSP234N5CCN2CCN3CCN4CC5)cc(CSP234N5CCN2CCN3CCN4CC5)c1             TGI   > 100 µM
6  O=[N+]([O-])C(/C=C(\Cl)[N+](=O)[O-])=C(N1CCOCC1)N1CCOCC1             TGI    53.9 µM
7  CN1N=C(c2ccncc2)OC1c1ccc(C(F)(F)F)cc1 (centres undefined)             TGI   > 100 µM
8  COc1ccc([C@@H]2[C@@H](Cl)C(=O)N2c2cc(OC)c(OC)c(OC)c2)cc1C             TGI   > 100 µM
9  CC(=O)[CH-]C(=O)c1ccccc1.CC(=O)[CH-]C(=O)c1ccccc1.Cl.[O-]CCc1ccccn1.[O-]CCc1ccccn1.[Ti+4]             TGI   > 100 µM
